FYI, the data here is from the supplement of paper PMC10567573.

B1: POMT2 (parent)
chain: LRGGGQVLLGWTLHYFPFFLMGRV

Variants of: B1
Test: protein stability index of a GFP-peptide fusion (GPS, HEK-293T) (PSI 1-6); higher = more stable;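 further: lentivirally expressed fusions sorted by FACS into six bins by GFP to DsRed ratio, PSI derived from sequencing read proportions per bin multiplied by bin number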
Details: c terminus: a fixed tail appended
Attribute Measured: protein stability index

Recorded protein stability index of `P17F` , please. 2.59

# protein stability index lookup, item `L1E` 2.74

May I ask what protein stability index has been recorded for `G3R` ? 2.12

Recorded protein stability index of `P17K` , please. 2.55

Tell me the measured protein stability index of `Y15I` , please. 4.09

Given the variant `L20N` , what is its reported protein stability index? 3.25

Which protein stability index value belongs to `L9M` ? 3.23

What value of protein stability index has been reported for the following variant? `L8R` 3.14

Would you mind telling me what protein stability index value was observed for `Q6I` ? 2.01

Dear colleague, I am looking for the recorded protein stability index of the following variant: `P17C` 2.18

What measured protein stability index goes with `G5I` ? 4.58

Which measured protein stability index value corresponds to `V7Y` ? 4.03

Give its protein stability index value. Item: `V24A` 1.72

# query: protein stability index of entry `V24H` 3.69

Give its protein stability index value. Item: `L9N` 2.66

Reported protein stability index for `L20S` : what is it? 1.7

Would you kindly share the measured protein stability index for `W11S` ? 1.38

Give the measured protein stability index of `P17V` . 2.54

Please look up its protein stability index: `M21N` 1.43

Name the reported protein stability index value associated with the variant `P17I` 2.09

I am curious: what protein stability index value has been reported for `W11M` ? 1.04

What protein stability index value was documented for this variant, `F19W` ? 3.22

Can you look up the measured protein stability index of `F16Q` for me? 2.26

// protein stability index lookup, key: `T12A` 2.59

Reported protein stability index, variant `Q6K` : ____ 2.02

Requested read-out: protein stability index. Entry: `G10F` 3.45

What does the record list as protein stability index for `R23T` ? 3.19

# input variant: `R23C` ; wanted: its protein stability index 2.79

Endpoint output: protein stability index of `L13C` . Value? 1.51

Report protein stability index for `G22P` please. 2.64

Returns the measured protein stability index for the input variant. Input: `V24R` 3.15

Suppose we examine the variant `G3Q` ; what protein stability index value has been reported? 2.94

What value of protein stability index has been recorded for this entry: `G4K` 3.19

Please give the measured protein stability index for this variant: `G3S` 1.68

If you can, please state the reported protein stability index value of `G4M` . 3.71

# protein stability index lookup, item `Q6L` 2.48

Need protein stability index of `P17M` , thanks. 4.38

May I ask what protein stability index has been recorded for `L1S` ? 2.23

# query: protein stability index of entry `R2P` 2.6

Item under review: `M21S` . Reported protein stability index? 2.79

What value of measured protein stability index is listed for `T12H` ? 2.35

Need protein stability index, item `F18Y` 1.42

What value of protein stability index has been recorded for this entry: `W11K` 3.25

Using the record for `G22C` , report its protein stability index. 1.58

GET /values?readout=protein stability index&item= `Q6D` 1.69

May I ask what protein stability index has been recorded for `F18E` ? 4.02
